Experiment Summary: Apparent inhibition constant of the FKBP […] isomerase (PPIase) activity
pKi: −log10 of the molar value.
Entries and their pKi values follow.
Readout: pKi

| Molecule | Readout | Measured Number |
| --- | --- | --- |
| CC1(C)COC(=O)CCCOC(=O)C2CCCCN2C(=O)C1=O (stereo not given) | pKi | 2.54 |
| CC1(C)COC(=O)CCCCCCCCCOC(=O)[C@@H]2CCCCN2C(=O)C1=O | pKi | 4.52 |
| CC1(C)COC(=O)CCCCCCCCCOC(=O)C2CCCCN2C(=O)C1=O (stereo not given) | pKi | 4.05 |
| CC1(C)COC(=O)CCCCCCCCCCCCCCCOC(=O)C2CCCCN2C(=O)C1=O (stereo not given) | pKi | 1.96 |
| CC1(C)COC(=O)CCCCCCCCCCC(CCC2CCCCC2)OC(=O)C2CCCCN2C(=O)C1=O (stereo not given) | pKi | 3.72 |
